- Tested target: T-cell surface glycoprotein CD4 (Homo sapiens)
- Assay method text: Chemotactic activity of compound measured as function of concentration of 10 uM compared to peptide T,[DA1a]peptide T and amygdalin
- Type: functional
Attribute: Chemotactic index
Keep the answer to the number alone.

Before answering, review these 3 worked examples.
Molecule	Property label	Quantitative readout
N#CC(O[C@@H]1O[C@H](CO[C@@H]2O[C@H](CO)[C@@H](O)[C@H](O)[C@H]2O)[C@@H](O)[C@H](O)[C@H]1O)c1ccccc1 (single isomer, unassigned)	Chemotactic index	0.63
OC[C@@H]1O[C@@H](OC[C@@H]2O[C@@H](OCc3ccccc3Br)[C@@H](O)[C@@H](O)[C@@H]2O)[C@@H](O)[C@@H](O)[C@@H]1O	Chemotactic index	0.94
COc1ccc(CO[C@@H]2O[C@@H](CO[C@@H]3O[C@@H](CO)[C@@H](O)[C@H](O)[C@@H]3O)[C@@H](O)[C@H](O)[C@@H]2O)cc1	Chemotactic index	0.87

-- ask Retrieve Chemotactic index measured for COc1ccc(CO[C@@H]2O[C@@H](CO[C@@H]3O[C@@H](CO)[C@@H](O)[C@H](O)[C@@H]3O)[C@@H](O)[C@H](O)[C@@H]2O)c(OC)c1 and print it.
-- reply 0.84

Where these numbers come from: ChEMBL document CHEMBL1142022
